- Method notes: Ocular tissue and plasma pharmacokinetics, 50 mg/kg BID oral, Dutch Belted rabbits (Example 4/5)
- Format: in vivo
- Test context: male, Dutch Belted, rabbit, retina, oral, 50 mg/kg, DB rabbits, Day 15, 50 mg/kg BID, 0 hr; read-out: Mean Retina Concentration
Endpoint name: concentration at 0 h

compound="CC(=O)c1nn(CC(=O)N2C[C@H](F)C[C@H]2C(=O)Nc2cccc(Br)n2)c2ccc(-c3cnc(C)nc3)cc12 [Compound 1]" assay_value="159 ng/g"

----------
- Method notes: Ocular tissue and plasma pharmacokinetics, 50 mg/kg BID oral, Dutch Belted rabbits (Example 4/5)
- Type: in vivo
- Test context: male, Dutch Belted, rabbit, retina, po, 50 mg/kg, DB rabbit, 50 mg/kg BID oral, Day 15, 0 h; read-out: Mean retina concentration
Endpoint name: concentration at 0 h

sample_smiles=CC(=O)c1nn(CC(=O)N2C[C@H](F)C[C@H]2C(=O)Nc2cccc(Br)n2)c2ccc(-c3cnc(C)nc3)cc12 endpoint_name="concentration at 0 h" assay_value="159 ng/g"
